Assign growth inhibition to each entry below.
- Protocol details: NCI Yeast Anticancer Drug Screen. Data for the mgt1 strain (AID 153)
- Settings: S. cerevisiae mgt1 mutant growth inhibition; at 1.2 µM; stronger effect = higher value
This is part of a sample that, as a whole, favours compounds with a hit. Of some 79,000 tested, about 15% had one in any assay.
One number for each entry, in %.

>>> print(df.to_string())
                             molecule      assay_readout  unit_of_measure  assay_value
0  CC(=O)ON1C(=O)c2cccc3cccc(c23)C1=O  growth inhibition                %            8
1                  OC1CSCCCSCCSCCCSC1  growth inhibition                %           -5

# batch: return growth inhibition for each of the 7 molecules below
1. Cc1cc(CO)c(O)c(CNCc2cc(C)cc(CO)c2O)c1
2. Cc1cc(I)ccc1N
3. CC1(Cl)CC(O)C2(CC1Br)C1(C)OC1C1OC1(Br)C2(C)C (stereo not given)
4. c1ccc2c(c1)sc1cc3ccncc3cc12
5. Cc1ccc(Cl)c2[nH]c(-c3ccccc3)cc(=O)c12
6. CN(C)c1nc2sc3c(c2c(=O)o1)CCCC3
7. CC(=O)Nc1ccc2c(c1)C(=Nc1ccc(C(=O)O)cc1)c1ccccc1-2

Found:
1. -13
2. 36
3. -18
4. -2
5. -5
6. -5
7. -2

# batch: return growth inhibition for each of the 4 molecules below
1. O=C1C2CC[C@@H]3C(=O)C(Cl)(Cl)[C@@H]3CCC2C1(Cl)Cl (stereo not given in full)
2. CCCCCCCCCCCC(=O)N(C)C
3. CCCCCCCCCCNC(=O)OCC
4. CNC1C(OC2C(OC3C(O)C(O)C(N=C(N)N)C(O)C3N=C(N)N)OC(C)C2(O)CO)OC(CO)C(O)C1O (stereo not given)

Found:
1: -2; 2: 7; 3: -2; 4: 0

# batch: return growth inhibition for each of the 7 molecules below
1. CC[n+]1ccc2c(C)c3[nH]c4ccc(O)cc4c3c(C)c2c1
2. O=C(N=Nc1ccccc1Cl)NNc1ccccc1Cl
3. Brc1ccc(-c2cc3c(cc2C2SCCS2)OCO3)cc1
4. COc1ccc(C2c3cc4c(cc3OC(C)(O)C2C)OCO4)c(OC)c1 (stereo not given)
5. CCCCCCCCCCCCCCCCCCNC
6. O=[N+]([O-])c1cccc([N+](=O)[O-])c1S(=O)(=O)c1ccccc1
7. CCC(C(=O)O)C1=C(c2ccccc2)CCc2ccccc21 (stereo not given)

Found:
1. -36
2. -5
3. -52
4. -5
5. 17
6. 19
7. 7

# batch: return growth inhibition for each of the 2 molecules below
1. COc1cc2c(c(OC)c1OC)-c1c(cc3c(c1OC)OCO3)CC(C)C(C)(O)C2OC(=O)c1ccccc1 (stereo not given)
2. OC1(c2ccccc2)CSC2=Nc3ccccc3C3CCN1N23 (stereo not given)

Found:
1. -5
2. -45

# batch: return growth inhibition for each of the 3 molecules below
1. Oc1cccc2c(Cl)ccnc12
2. CN(C)c1ccc(Sc2ccc3nc(N)nc(N)c3c2)cc1
3. COC(=O)c1cc(-c2ccc(C)cc2)[nH]c(=O)c1C#N

Found:
1: 41; 2: -5; 3: 0

----------
- Protocol details: NCI Yeast Anticancer Drug Screen. Data for the CLN2oe strain (AID 163);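 further: 0% = growth of vehicle-only control cultures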
- Settings: S. cerevisiae CLN2oe strain, at 1.2 µM, stronger effect = higher value
This is part of a sample that, as a whole, favours compounds with a hit. Of some 79,000 tested, about 15% had one in any assay.
Assay readout: growth inhibition (%)
Give bare numbers, in %.

>>> df
                                   molecule  assay_value
0  Cn1c2ccccc2c(=O)c2cc(NC(=O)CCCCC(=O)Nc3ccc4c(c3)c(=O)c3ccccc3n4C)ccc21           -6
1              CCOc1ccc2c(c1)c(CC(=O)O)cn2C           -3
2  O=C([O][Sn]([O]C(=O)c1ccccc1)([c]1ccccc1)[c]1ccccc1)c1ccccc1           15

# batch: return growth inhibition for each of the 7 molecules below
1. O=C(c1ccc(Cl)cc1Cl)C(Cl)Cl
2. CC(/C=C/c1ccc(Cl)cc1)=N\NC(=S)NCC(C)C
3. COc1ccc(/C=C/C(=O)C(C)(C)Br)cc1
4. CCCCCCCCCCC(=O)Cl
5. CCN(CC)CC(O)c1ccc2ccc3ccccc3c2c1 (centres undefined)
6. FC(F)(F)c1nc2nc(Cl)c(Cl)nc2n1CCCN1CCOCC1
7. S=C(N/N=C/c1ccccn1)Nc1ccc(Cl)cc1

Found:
[-11, 0, 0, -4, 0, 2, -3]

# batch: return growth inhibition for each of the 6 molecules below
1. N/C(=N\OC(=O)NC(Cl)=C(Cl)Cl)c1cc(C(F)(F)F)cc(C(F)(F)F)c1
2. OC1(c2ccccc2)CSC2=Nc3ccccc3C3CCN1N23 (centres undefined)
3. Cc1ccc(S(=O)(=O)NNC(=S)Nc2cccc3ccccc23)cc1
4. N#Cc1c(N)[nH]c2ccc(Sc3ccccc3)cc12
5. CCCCN(CCCC)CCSc1ccc(Cl)cc1
6. C=CCC1=C(C)C(OC(=O)/C=C/c2ccccc2)CC1=O (centres undefined)

Found:
1: 25; 2: -23; 3: -12; 4: -6; 5: -12; 6: 2

# batch: return growth inhibition for each of the 7 molecules below
1. BrCc1cccc2ccc3cccc(CBr)c3c12
2. NC1=NS(=O)(=O)N=C(N)C1=Cc1ccc([N+](=O)[O-])o1
3. S=c1[nH]nc(Nc2ccc(Cl)cc2)s1
4. COc1ccc(/C(C)=N/OC(=O)c2c(-c3ccccc3Cl)noc2C)cc1CN1CCOCC1
5. Nc1ncncc1C(C1=C(O)COC1=O)C1=C(O)COC1=O
6. CCCN(CCC)CC(O)c1cc(-c2ccc(Cl)cc2)nc2c(C)c(Cl)ccc12 (centres undefined)
7. CC1C(NNc2ccccc2)Oc2cc3c(cc2C1c1ccccc1O)OCO3 (centres undefined)

Found:
[-2, 9, -7, -12, -7, -3, -1]

Lookup: Please report the recorded growth inhibition for O=[N+]([O-])c1cccc2nc3ccccc3c(NCCCN3CCOCC3)c12 .
Found: -7

----------
Assign growth inhibition to each entry below.
- Protocol details: NCI Yeast Anticancer Drug Screen. Data for the sgs1 strain (AID 173);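 further: 0% = growth of vehicle-only control cultures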
- Settings: S. cerevisiae sgs1 mutant, at 3.7 µM, stronger effect = higher value
Compounds without any hit were thinned out: in the full panel of roughly 79,000, 15% have a hit.
Give bare numbers, in %.

Some compounds with recorded growth inhibition:
>>> df
                              entry_smiles  assay_value
0   Cc1ccc(NN(NC(=O)OC(C)C)C(=O)OC(C)C)cc1            1
1    Cc1ccc(NC(=O)/C(Cl)=C(\Cl)C(=O)O)cc1C            6
2           Oc1ccc(NCn2c(=S)sc3ccccc32)cc1            5
3  COC(=O)c1cc(-c2ccc(C)cc2)[nH]c(=O)c1C#N           -1

# batch: return growth inhibition for each of the 2 compounds below
1. CC(=O)Nc1ccc(/C=C(\C#N)c2ccc(C)cc2)cc1
2. CCCCCCCCCCCC1=C(O)C(=O)C=C(O)C1=O

Found:
[-19, -11]

----------
- Protocol details: NCI Yeast Anticancer Drug Screen. Data for the rad50 strain (AID 155);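 further: 0% = growth of vehicle-only cultures of the same strain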
- Settings: S. cerevisiae rad50 strain growth inhibition; at 100.0 µM
About 79,000 compounds went through this panel and 15% of them were active in at least one assay; those are over-represented in the sample as a whole. Activity calls are given as the source filed them. Rule as the data show it: active = growth inhibition above about 70%; inactive = the rest.
The reply should name one outcome from yes (active), no (inactive)

// below: answered compounds
In [3]: df
Out[3]:
                                   compound  class_label
0  O=C(CCCN1CCC2(CC1)CC(=O)N(N1CCCCCC1)C2=O)c1ccc(F)cc1           no
1                            C#CCCCc1ccccc1           no
2  CCCCCCCCCCC1CCC(=O)O1 (stereo not drawn)          yes
3  CCCCCCc1cc(C(=O)OC/C(C)=N/NC(N)=O)c2ccccc2n1           no
4        Cc1ccc(CCC2=CCCc3c2ccc2ccccc32)cc1           no
5  CCN(CC)CC(O)c1ccc2ccc3ccccc3c2c1 (stereo not drawn)           no
6  C[C@@H]1C[C@H]2[C@@H]3CCC4=CC(=O)C=C[C@]4(C)[C@@]3(Cl)[C@@H](Cl)C[C@]2(C)[C@@]1(O)C(=O)COP(=O)(O)O           no
7                       CCCCCCCCCCNC(=O)OCC          yes
8            Cc1nc(-c2ccccc2)c(-c2ccccc2)s1          yes
9    CC(=O)Nc1ccc(/C=C(\C#N)c2ccc(C)cc2)cc1           no

We now examine a further compound.
Lookup: Outcome logged for Cc1ccc(NN(NC(=O)OC(C)C)C(=O)OC(C)C)cc1 in this assay:
Found: no
